test system: human hepatoma cell line ET (lub ubi neo/ET); assay: Cytotoxicity (colorimetric cell number assay) in HCV replicon ET cell line; details: read-out: Cytotoxicity IC50, concentration inhibiting cell viability by 50%, ET cells, 72 hours
Endpoint label: pIC50
Lab note — pIC50 values are minus log10 of concentrations in M.

Worked cases, answers included:
* CC=CCC(C)C(O)C1C(=O)NC(CC)C(=O)N(C)C(SCc2ccccc2)C(=O)N(C)C(CC(C)C)C(=O)NC(C(C)C)C(=O)N(C)C(CC(C)C)C(=O)NC(C)C(=O)NC(C)C(=O)N(C)C(CC(C)C)C(=O)N(C)C(CC(C)C)C(=O)N(C)C(C(C)C)C(=O)N1C (stereo not drawn) | 4.70
* C/C=C/C[C@@H](C)[C@@H](O)[C@H]1C(=O)N[C@@H](CC)C(=O)N(C)C(OCc2cccs2)C(=O)N(C)[C@@H](CC(C)C)C(=O)N[C@@H](C(C)C)C(=O)N(C)[C@@H](CC(C)C)C(=O)N[C@@H](C)C(=O)N[C@H](C)C(=O)N(C)[C@@H](CC(C)C)C(=O)N(C)[C@@H](CC(C)C)C(=O)N(C)[C@@H](C(C)C)C(=O)N1C (stereo partly drawn) [C, 3-[(thiophene-2-yl)methoxy]cyclosporin] | 4.96

Turning now to a further record.
Give human hepatoma cell line ET (lub ubi neo/ET) pIC50 for the following molecule: C/C=C/C[C@@H](C)[C@@H](O)[C@H]1C(=O)N[C@@H](CC)C(=O)N(C)C(OCc2ccco2)C(=O)N(C)[C@@H](CC(C)C)C(=O)N[C@@H](C(C)C)C(=O)N(C)[C@@H](CC(C)C)C(=O)N[C@@H](C)C(=O)N[C@H](C)C(=O)N(C)[C@@H](CC(C)C)C(=O)N(C)[C@@H](CC(C)C)C(=O)N(C)[C@@H](C(C)C)C(=O)N1C (stereo partly drawn) [D, 3-[(furan-2-yl)methoxy]cyclosporin] 4.74
